- System: PDGF-R
- assay notes: PDGF-R Assay (cellular ELISA, U1242 cells)
- Type: cell-based
- Set-up: concentration or dose not given beside the values
- test context: protocol P.119
readout: PDGF Kinase % Inhibition (P.119) (%)
Kindly provide the numeric value in % only, without the unit symbol.

Look at this molecule and give its reported PDGF Kinase % Inhibition (P.119). CNS(=O)(=O)c1ccc2c(c1)C(=Cc1ccc(C)cc1C)C(=O)N2
−5.8

Again, but for O=C1Nc2ccc(S(=O)(=O)Nc3ccc(C(F)(F)F)cc3)cc2C1=Cc1cc(F)ccc1F
29.7

Again, but for Cc1c(Br)ccc2c1C(=Cc1cccc(Oc3cccc(C(F)(F)F)c3)c1)C(=O)N2
32.5

Again, but for CCOc1ccc(C=C2C(=O)Nc3ccc(S(=O)(=O)N4CCOCC4)cc32)cc1
9.0

Again, but for O=C1Nc2ccc(I)cc2C1=Cc1ccoc1
−16.1

Again, but for O=C1Nc2ccc(S(=O)(=O)N3CCOCC3)cc2C1=Cc1cccc(Oc2cccc(C(F)(F)F)c2)c1
16.5

Again, but for CNS(=O)(=O)c1ccc2c(c1)C(=Cc1ccc(OC)c(C)c1)C(=O)N2
17.8

Again, but for Cc1ccc(C)c(C=C2C(=O)Nc3c(Br)cc(Br)cc32)c1
7.0

Again, but for O=C1Nc2ccc(CCCl)cc2C1=Cc1ccc(Oc2ccccc2)cc1
8.2

###

- test system: Met receptor (EGFR/Met chimeric cells, EMR) (Homo sapiens, UniProt P08581)
- Construct: expressed in transfected cells; the other entry of the earlier key: EGFR (P00533, Epidermal growth factor receptor)
- Sequence (P08581 with tags, fused parts or gaps): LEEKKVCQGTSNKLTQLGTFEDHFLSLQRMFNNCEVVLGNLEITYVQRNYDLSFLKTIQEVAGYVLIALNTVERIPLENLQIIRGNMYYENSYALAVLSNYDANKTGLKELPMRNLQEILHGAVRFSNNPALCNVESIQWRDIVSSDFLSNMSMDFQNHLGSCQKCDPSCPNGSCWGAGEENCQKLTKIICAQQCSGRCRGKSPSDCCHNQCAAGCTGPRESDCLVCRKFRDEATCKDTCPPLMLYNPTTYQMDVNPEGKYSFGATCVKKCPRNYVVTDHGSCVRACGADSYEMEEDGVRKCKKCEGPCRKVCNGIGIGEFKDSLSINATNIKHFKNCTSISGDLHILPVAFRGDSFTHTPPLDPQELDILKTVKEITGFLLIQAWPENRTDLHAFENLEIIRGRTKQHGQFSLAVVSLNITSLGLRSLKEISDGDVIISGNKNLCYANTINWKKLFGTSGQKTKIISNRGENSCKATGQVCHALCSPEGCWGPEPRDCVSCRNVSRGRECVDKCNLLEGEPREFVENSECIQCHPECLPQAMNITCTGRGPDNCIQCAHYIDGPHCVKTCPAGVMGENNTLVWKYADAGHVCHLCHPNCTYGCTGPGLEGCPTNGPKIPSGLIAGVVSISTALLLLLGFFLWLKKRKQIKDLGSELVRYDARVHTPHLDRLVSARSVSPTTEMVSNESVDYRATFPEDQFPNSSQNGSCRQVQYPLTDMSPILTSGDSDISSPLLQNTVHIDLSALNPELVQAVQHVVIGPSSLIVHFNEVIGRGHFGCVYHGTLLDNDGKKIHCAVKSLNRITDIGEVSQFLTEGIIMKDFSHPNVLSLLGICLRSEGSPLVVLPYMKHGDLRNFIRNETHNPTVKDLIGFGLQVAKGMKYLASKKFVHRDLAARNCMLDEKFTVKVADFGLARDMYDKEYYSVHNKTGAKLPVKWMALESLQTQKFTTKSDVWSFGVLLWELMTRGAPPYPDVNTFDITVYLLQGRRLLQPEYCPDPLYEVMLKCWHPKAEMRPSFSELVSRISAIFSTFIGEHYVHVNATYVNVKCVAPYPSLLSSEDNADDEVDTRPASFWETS
- assay notes: Met Autophosphorylation Assay
- Assay type: biochemical
- test context: protocol P.130
readout: Met Kinase % Inhibition (P.130) (%)
Kindly provide the numeric value in % only, without the unit symbol.

Look at this compound and give its reported Met Kinase % Inhibition (P.130). COc1ccc(C=C2C(=O)Nc3ccc(S(=O)(=O)Nc4ccc(C(F)(F)F)cc4)cc32)cc1F
57.8

Again, but for Cc1c(Br)ccc2c1C(=Cc1cccc(OCc3ccccc3)c1)C(=O)N2
10.9

Again, but for O=C1Nc2ccc(I)cc2C1=Cc1cnc2ccccc2c1
79.2

Again, but for COC1CCCN1C=C1C(=O)Nc2c(Br)cc(Br)cc21 (racemic)
48.2

Again, but for O=C1Nc2ccc(S(=O)(=O)N3CCOCC3)cc2C1=Cc1ccc(Oc2ccccc2)cc1
76.5

###

- test system: EGFR (Homo sapiens, UniProt P00533)
- Construct: endogenous in cells; host or cells: A431 cells (lysate, captured with SUMO1 anti-EGFR antibody)
- Sequence (P00533 25-1210): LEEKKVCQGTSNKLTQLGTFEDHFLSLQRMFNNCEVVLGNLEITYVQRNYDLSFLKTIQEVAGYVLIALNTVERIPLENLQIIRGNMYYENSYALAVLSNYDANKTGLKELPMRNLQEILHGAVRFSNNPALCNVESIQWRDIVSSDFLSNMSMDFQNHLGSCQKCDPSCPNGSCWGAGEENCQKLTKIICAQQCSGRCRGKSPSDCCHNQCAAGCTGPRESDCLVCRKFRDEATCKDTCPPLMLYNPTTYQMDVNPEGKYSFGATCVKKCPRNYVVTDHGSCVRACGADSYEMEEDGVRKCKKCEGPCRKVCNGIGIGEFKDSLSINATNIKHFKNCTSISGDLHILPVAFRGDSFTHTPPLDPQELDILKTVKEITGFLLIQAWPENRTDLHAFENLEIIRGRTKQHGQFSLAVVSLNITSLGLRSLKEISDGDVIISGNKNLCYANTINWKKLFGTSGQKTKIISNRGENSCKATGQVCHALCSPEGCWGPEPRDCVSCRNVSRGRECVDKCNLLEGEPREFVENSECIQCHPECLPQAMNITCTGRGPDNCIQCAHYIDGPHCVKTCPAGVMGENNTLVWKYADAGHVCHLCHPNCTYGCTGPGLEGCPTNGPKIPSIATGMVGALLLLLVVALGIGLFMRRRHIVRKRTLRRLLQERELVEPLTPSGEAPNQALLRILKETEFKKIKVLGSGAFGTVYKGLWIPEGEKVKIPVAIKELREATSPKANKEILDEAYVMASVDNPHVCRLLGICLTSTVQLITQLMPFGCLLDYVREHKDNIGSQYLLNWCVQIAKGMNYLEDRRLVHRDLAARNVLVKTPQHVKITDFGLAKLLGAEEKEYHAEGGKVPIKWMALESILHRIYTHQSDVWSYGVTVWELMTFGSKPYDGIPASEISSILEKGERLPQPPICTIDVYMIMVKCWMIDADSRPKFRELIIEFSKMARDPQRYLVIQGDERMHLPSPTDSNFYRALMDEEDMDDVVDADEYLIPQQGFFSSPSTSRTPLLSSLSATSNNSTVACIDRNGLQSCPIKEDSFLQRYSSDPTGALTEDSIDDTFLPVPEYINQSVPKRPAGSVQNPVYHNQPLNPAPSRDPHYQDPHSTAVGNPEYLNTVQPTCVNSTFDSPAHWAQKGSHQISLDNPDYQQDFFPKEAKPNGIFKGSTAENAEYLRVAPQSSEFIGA
- assay notes: Biochemical EGFR Assay
- Design: concentration or dose not given beside the values
readout: Biochem EGFR % Inhibition (P.167) (%)
Kindly provide the numeric value in % only, without the unit symbol.

Look at this molecule and give its reported Biochem EGFR % Inhibition (P.167). Cc1c(Br)cc(Br)c2c1C(=Cc1ccccc1O)C(=O)N2
−29.0

Again, but for CNS(=O)(=O)c1ccc2c(c1)C(=Cc1ccc(Cl)cc1)C(=O)N2
1.8

Again, but for N#Cc1ccccc1C=C1C(=O)Nc2ccc(I)cc21
47.7

Again, but for Cc1c(Br)cc(Br)c2c1C(=Cc1ccc(F)cc1)C(=O)N2
−2.0

Again, but for Cc1c(Br)cc(Br)c2c1C(=Cc1ccccc1OCC(=O)O)C(=O)N2
−22.4

Again, but for Cc1c(Br)ccc2c1C(=Cc1cccc(F)c1O)C(=O)N2
35.1

Again, but for O=C1Nc2ccc(S(=O)(=O)Nc3ccc(C(F)(F)F)cc3)cc2C1=Cc1ccc(Br)s1
−8.0

Again, but for Cc1c(Br)cc(Br)c2c1C(=Cc1nn(C)cc1Cl)C(=O)N2
29.2

Again, but for O=C1Nc2ccc(S(=O)(=O)Nc3ccc(C(F)(F)F)cc3)cc2C1=Cc1cc(C(F)(F)F)cc(C(F)(F)F)c1
8.7
